Taken from PubChem BioAssay AID463074.

System: HMLE_sh_eGFP viability, CellTiter-Glo luminescence, 72 h
Experimental details: cytotoxicity in HMLE control line with eGFP shRNA, dose response, counter-screen for HMLE_sh_ECad selective toxicity project, cell-based, HMLE_sh_eGFP, luminescence (AID 463074);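 also: counterscreen control line to flag general toxicity for the HMLE_sh_ECad screen; potency for loss of viability as luminescence drops below DMSO wells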
Recorded AC50, one value per entry.

Examples with their reported AC50 follow.
C=C[C@@H]1c2cc(C)ccc2N(S(=O)(=O)c2ccc(C)cc2)[C@H](c2ccc(OC(C)=O)cc2)C1(C#N)C#N : 1.3 µM
CCOC(=O)c1c(NC(C)=O)sc2c1CCC(C=O)=C2Sc1ccccc1 : 3.63 µM
O=C(Nc1ccc(Nc2ccccc2)cc1)c1cccc(F)c1 : 17.6 µM

Ask | Given `CC(C)(C)OC(=O)[C@H](Cc1ccccc1)NC(=O)c1[nH]cnc1C(=O)Nc1cccc(Cl)c1` , respond with its AC50.
Reply | 3.93 µM

Ask | Return reported AC50. Input compound: `O=[N+]([O-])c1ccc(COc2ccc(-c3[nH]ncc3-c3ccc(Cl)cc3)c(O)c2)cc1`
Reply | 4.01 µM

Ask | Tell me AC50 reported for CCc1ccc(NC(=O)C(CC)Sc2nc3cc4c(cc3c(=O)n2Cc2ccco2)OCO4)cc1 (centres undefined)
Reply | 13.1 µM

Ask | Give recorded AC50. O=C(Nc1ccc(Cl)c(C(F)(F)F)c1)NC1CC2CCCC(C1)N2Cc1ccccc1 (centres undefined)
Reply | 6.8 µM

Ask | Tell me measured AC50 for Cc1ccc(N2C(=O)C3C4C=CC(CC4)C3C2=O)cc1Br (centres undefined) please.
Reply | 1.38 µM

Ask | For the compound `Cn1nnnc1Sc1ncnc2scc(-c3ccc(C(F)(F)F)cc3)c12` , report AC50.
Reply | 3.03 µM
